The values you see were collected from patent US8933106B2.

Here, each record is paired with measured melting point data.

response.value for `Cc1cc(I)cc(C)c1Oc1ccc([N+](=O)[O-])c(Nc2ccc(C#N)cc2)n1` (field: melting point) = 162 to 165 °C

response.value for `N#CC=Cc1cc(Br)c(Oc2ccc([N+](=O)[O-])c(Nc3ccc(C#N)cc3)n2)c(Br)c1` (field: melting point) = 223 to 226 °C

response.value for `C=CCc1cc(C)c(Oc2ccc(N)c(Nc3ccc(C#N)cc3)n2)c(C)c1` (field: melting point) = 150 to 152 °C

response.value for `C#Cc1cc(C)c(Oc2ccc([N+](=O)[O-])c(Nc3ccc(C#N)cc3)n2)c(C)c1` (field: melting point) = 186 to 188 °C

response.value for `C#Cc1cc(C)c(Oc2ccc(N)c(Nc3ccc(C#N)cc3)n2)c(C)c1` (field: melting point) = 79 to 82 °C

response.value for Cc1cc(C(O)C[N+](=O)[O-])cc(C)c1Oc1ccc([N+](=O)[O-])c(Nc2ccc(C#N)cc2)n1 (centres unmarked) (field: melting point) = 230 to 234 °C

response.value for `Cc1cc(C#CC(C)(C)O)cc(C)c1Oc1ccc([N+](=O)[O-])c(Nc2ccc(C#N)cc2)n1` (field: melting point) = 114 to 116 °C

response.value for `N#Cc1ccc(Nc2nc(Oc3c(Br)cc(Br)cc3Br)ccc2[N+](=O)[O-])cc1` (field: melting point) = 188 to 191 °C

response.value for `N#Cc1ccc(Nc2nc(Oc3c(F)cccc3F)ccc2[N+](=O)[O-])cc1` (field: melting point) = 234 to 236 °C

response.value for `Cc1cc(C#CC2CC2)cc(C)c1Oc1ccc([N+](=O)[O-])c(Nc2ccc(C#N)cc2)n1` (field: melting point) = 188 to 192 °C

response.value for `Cc1cc(Br)cc(C)c1Oc1ccc(N)c(Nc2ccc(C#N)cc2)n1` (field: melting point) = 190 to 193 °C

response.value for `Cc1cc(N)cc(C)c1Oc1ccc(N)c(Nc2ccc(C#N)cc2)n1` (field: melting point) = 195 to 198 °C
